Test: Chemical stability in phosphate buffer solution at pH 1.10 to 6.84 at 60 degC up to 24 hrs by HPLC analysis
Assay type: physicochemical
Settings: pH 1.1, 24 h
measurement type: Stability

CN(C)CCOc1ccc(-c2cc(=S)ss2)cc1.Cl	Stable
COc1ccc(-c2cc(=S)ss2)cc1	Stable
Oc1ccc(-c2cc(=S)ss2)cc1	Stable

---

Tested on: Plasma
Assay: Stability in mouse plasma up to 12 hrs by HPLC analysis
Format: ADME, cell-free
measurement type: Stability

Reference set (5 entries):
CN(C)CCOc1ccc(-c2cc(=S)ss2)cc1.Cl	Stable
Cl.S=c1cc(-c2ccc(OCCN3CCCC3)cc2)ss1	Stable
CC[N+](CC)(CC)CCOc1ccc(-c2cc(=S)ss2)cc1.[Br-]	Stable
Oc1ccc(-c2cc(=S)ss2)cc1	Stable
Cl.S=c1cc(-c2ccc(OCCN3CCOCC3)cc2)ss1	Stable

Enquiry: Give recorded Stability. COc1ccc(-c2cc(=S)ss2)cc1 [ANETHOLTRITHION]
Return: Stable

Enquiry: Give recorded Stability. Cl.S=c1cc(-c2ccc(OCCN3CCCCC3)cc2)ss1
Return: Stable

Enquiry: Give recorded Stability. S=c1cc(-c2ccc(OCC[n+]3ccccc3)cc2)ss1.[Br-]
Return: Stable

Enquiry: Give recorded Stability. CN(C)c1cc[n+](CCOc2ccc(-c3cc(=S)ss3)cc2)cc1.[Br-]
Return: Stable

---

Assay: Aqueous solubility in water after 24 hrs by HPLC analysis
Assay type: physicochemical
measurement type: solubility at 24 h

Reference set (4 entries):
Oc1ccc(-c2cc(=S)ss2)cc1	< 130 µg/mL
CC[N+](CC)(CC)CCOc1ccc(-c2cc(=S)ss2)cc1.[Br-]	3500 µg/mL
Cl.S=c1cc(-c2ccc(OCCN3CCCC3)cc2)ss1	> 20000 µg/mL
S=c1cc(-c2ccc(OCC[n+]3ccccc3)cc2)ss1.[Br-]	2300 µg/mL

Enquiry: Give recorded solubility at 24 h. CN(C)c1cc[n+](CCOc2ccc(-c3cc(=S)ss3)cc2)cc1.[Br-]
Return: 2800 µg/mL

Enquiry: Give recorded solubility at 24 h. COc1ccc(-c2cc(=S)ss2)cc1 [ANETHOLTRITHION]
Return: < 10 µg/mL

Enquiry: Give recorded solubility at 24 h. CN(C)CCOc1ccc(-c2cc(=S)ss2)cc1.Cl
Return: > 20000 µg/mL

Enquiry: Give recorded solubility at 24 h. Cl.S=c1cc(-c2ccc(OCCN3CCOCC3)cc2)ss1
Return: > 20000 µg/mL

Enquiry: Give recorded solubility at 24 h. Cl.S=c1cc(-c2ccc(OCCN3CCCCC3)cc2)ss1
Return: > 20000 µg/mL
